So I've got a bunch of sequences here, and I need their remaining target (mRNA or protein) (fraction of control) values.
Settings: ASO; further: test concentration or dose not given here
These antisense oligonucleotides have a phosphorothioate backbone; sugars and methylation of C are not fully specified.

Tell me its remaining target (mRNA or protein) (fraction of control) given TTCTGGCACTTTCTATGA as the entry.
0.72

Tell me its remaining target (mRNA or protein) (fraction of control) given TTGCCCAACCACTCGTTC as the entry.
0.45

Tell me its remaining target (mRNA or protein) (fraction of control) given AAAGAAGGGATAAGCACT as the entry.
0.93

Tell me its remaining target (mRNA or protein) (fraction of control) given GTTCATTCCATTCAGTTG as the entry.
0.87

Tell me its remaining target (mRNA or protein) (fraction of control) given GGGTCCGTTCCCTCAACA as the entry.
≥ 1

Tell me its remaining target (mRNA or protein) (fraction of control) given AGGAGGCAGTACTGGAGTCT as the entry.
0.7

Tell me its remaining target (mRNA or protein) (fraction of control) given CAGGTAGATGAGGGCGAT as the entry.
0.74

Tell me its remaining target (mRNA or protein) (fraction of control) given GTGTAGTGGCTGAAAAGG as the entry.
≥ 1

Tell me its remaining target (mRNA or protein) (fraction of control) given GAGAGATGCCCACCCACC as the entry.
≥ 1

Tell me its remaining target (mRNA or protein) (fraction of control) given ATCTTCTTCTCTTTCCTT as the entry.
≥ 1

Tell me its remaining target (mRNA or protein) (fraction of control) given CAAAGCGCTTAACTACAT as the entry.
≥ 1

Tell me its remaining target (mRNA or protein) (fraction of control) given GGATCCTGTTGATCTCCT as the entry.
≥ 1

Tell me its remaining target (mRNA or protein) (fraction of control) given GCTCCAGCAGCAGCAGCC as the entry.
0.94

Tell me its remaining target (mRNA or protein) (fraction of control) given CTCCGGCGCGCACGGGAACC as the entry.
0.55

Tell me its remaining target (mRNA or protein) (fraction of control) given CTATGGAAATGCAGCTTAAG as the entry.
0.87

Tell me its remaining target (mRNA or protein) (fraction of control) given GTCTTCAGTGTTTTCATT as the entry.
≥ 1

Tell me its remaining target (mRNA or protein) (fraction of control) given TGCACCAGTGGCTCGGCT as the entry.
≥ 1

Tell me its remaining target (mRNA or protein) (fraction of control) given CACCGATGCAGAGGTCGC as the entry.
0.87

Tell me its remaining target (mRNA or protein) (fraction of control) given CCATGGTGCGGTGGCCTC as the entry.
0.94

Tell me its remaining target (mRNA or protein) (fraction of control) given TCCCAGGGTGTGCGTCAC as the entry.
≥ 1

Tell me its remaining target (mRNA or protein) (fraction of control) given TTTCTCATTGCCTTCACG as the entry.
≥ 1

Tell me its remaining target (mRNA or protein) (fraction of control) given TGGGGGTGGTGGAGTGCATA as the entry.
0.53

Tell me its remaining target (mRNA or protein) (fraction of control) given TATTATCGAGTGACTGGT as the entry.
≥ 1

Tell me its remaining target (mRNA or protein) (fraction of control) given CACCTGCAGCCGCCCGTCCA as the entry.
0.55

Tell me its remaining target (mRNA or protein) (fraction of control) given AGAAAAGGAAATCCCAAA as the entry.
≥ 1

Tell me its remaining target (mRNA or protein) (fraction of control) given AGCTCGCGCGAACCCCTA as the entry.
≥ 1

Tell me its remaining target (mRNA or protein) (fraction of control) given ATCCTTTGTATTTCTTTC as the entry.
0.85

Tell me its remaining target (mRNA or protein) (fraction of control) given CCTCCACAGCCACTGCAT as the entry.
0.97

Tell me its remaining target (mRNA or protein) (fraction of control) given GTCCAGGTAGCGGGCGAG as the entry.
≥ 1

Tell me its remaining target (mRNA or protein) (fraction of control) given GGCTGCGGAGCACGTCCT as the entry.
0.54

Tell me its remaining target (mRNA or protein) (fraction of control) given CCTTCAGCAAAACAAAAC as the entry.
0.76

Tell me its remaining target (mRNA or protein) (fraction of control) given AAGACAATGTGGAATCGG as the entry.
≥ 1

Tell me its remaining target (mRNA or protein) (fraction of control) given TCCATTTCTTACGCTCTG as the entry.
≥ 1

Tell me its remaining target (mRNA or protein) (fraction of control) given GAGGCGCTGCGGAACTTGGC as the entry.
0.5

Tell me its remaining target (mRNA or protein) (fraction of control) given AGGGAGGCTGCCTTTTCC as the entry.
0.63

----------
Molecular target: CTNNB1
Details: ASO
These antisense oligonucleotides have a phosphorothioate backbone; sugars and methylation of C are not fully specified.
Label rule met when remaining target (mRNA or protein) (fraction of control) is strictly below 0.5; otherwise label rule not met.

Here's an entry: CTTGAGTAGCCATTGTCCAC . Is its remaining target (mRNA or protein) (fraction of control) below 0.5?
rule not met

Here's an entry: AGTAGCCATTGTCCACGCTG . Is its remaining target (mRNA or protein) (fraction of control) below 0.5?
rule met

Here's an entry: ACCAGGGTGGTGGCCACCCA . Is its remaining target (mRNA or protein) (fraction of control) below 0.5?
rule met

Here's an entry: AGGCTAGGGTTTGCTAAATT . Is its remaining target (mRNA or protein) (fraction of control) below 0.5?
rule met

Here's an entry: TTCTCTTGAAGCATCGTATC . Is its remaining target (mRNA or protein) (fraction of control) below 0.5?
rule met

Here's an entry: CTGGTCAGCTCAACTGAAAG . Is its remaining target (mRNA or protein) (fraction of control) below 0.5?
rule met

Here's an entry: CATTGTCCACGCTGGATTTT . Is its remaining target (mRNA or protein) (fraction of control) below 0.5?
rule not met

----------
Biological target: MAP2K7
Conditions: ASO
These antisense oligonucleotides have a phosphorothioate backbone; sugars and methylation of C are not fully specified.
attributeMeasured: remaining target (mRNA or protein) (fraction of control)
No unit in the answer, please; the number alone is enough.

Tell me its remaining target (mRNA or protein) (fraction of control) given AGGACGCCGCCATCTTCCCC as the entry.
0.7

Tell me its remaining target (mRNA or protein) (fraction of control) given CCCAGGCTCCATACGTCGGC as the entry.
0.74

Tell me its remaining target (mRNA or protein) (fraction of control) given GAGTCCACCAGGCGGCCGCT as the entry.
0.66

Tell me its remaining target (mRNA or protein) (fraction of control) given TGTCATCTTGCCCAGAATGC as the entry.
0.68

Tell me its remaining target (mRNA or protein) (fraction of control) given TTCCGGAAGCGCATCTTCCA as the entry.
0.86

Tell me its remaining target (mRNA or protein) (fraction of control) given CGCGCACCGCCCGGCCGCCC as the entry.
0.46

Tell me its remaining target (mRNA or protein) (fraction of control) given CGCCGCCATCTTCCCCGCCG as the entry.
0.99

Tell me its remaining target (mRNA or protein) (fraction of control) given GGAGCGCCGCATTTGCTTAA as the entry.
0.75

Tell me its remaining target (mRNA or protein) (fraction of control) given ACTCAGGTCTTCGCCATGAC as the entry.
0.76

Tell me its remaining target (mRNA or protein) (fraction of control) given TTCTCCTGCTTCAGCTTTGC as the entry.
0.69

Tell me its remaining target (mRNA or protein) (fraction of control) given CATCTTCCCCGCCGCCACCG as the entry.
0.68

Tell me its remaining target (mRNA or protein) (fraction of control) given TGAACGTCCCAAAGCACTGC as the entry.
0.86

Tell me its remaining target (mRNA or protein) (fraction of control) given AGACAAACACCTCGTGCCGA as the entry.
0.88

Tell me its remaining target (mRNA or protein) (fraction of control) given ATGGCGATGAAGACGTCCGT as the entry.
0.84

Tell me its remaining target (mRNA or protein) (fraction of control) given GCCATCTTCCCCGCCGCCAC as the entry.
0.75

Tell me its remaining target (mRNA or protein) (fraction of control) given GGTAGTACAGCGCCTTCACA as the entry.
0.82

Tell me its remaining target (mRNA or protein) (fraction of control) given GCCGTTAGTCCGCGGTGACT as the entry.
0.72

Tell me its remaining target (mRNA or protein) (fraction of control) given CGTCAGTCCGGCAGACAAAC as the entry.
0.91

Tell me its remaining target (mRNA or protein) (fraction of control) given CCCCGAGAAGCCCATGTGTC as the entry.
0.69

Tell me its remaining target (mRNA or protein) (fraction of control) given TAGCCCGTCTGCTTCATGAT as the entry.
0.76

Tell me its remaining target (mRNA or protein) (fraction of control) given GACGCCGCCATCTTCCCCGC as the entry.
0.7

Tell me its remaining target (mRNA or protein) (fraction of control) given TCTTCCCCGCCGCCACCGCC as the entry.
0.77

Tell me its remaining target (mRNA or protein) (fraction of control) given CCGCCATCTTCCCCGCCGCC as the entry.
0.9

Tell me its remaining target (mRNA or protein) (fraction of control) given TCCAGGTTGAGGTCGATCCT as the entry.
0.68

Tell me its remaining target (mRNA or protein) (fraction of control) given GCACCACATCCAGGTCCATG as the entry.
0.58

Tell me its remaining target (mRNA or protein) (fraction of control) given AGGCGGCACAGCCGGCGCTC as the entry.
0.95

Tell me its remaining target (mRNA or protein) (fraction of control) given GGAGGGCTTGACGTCGCGGT as the entry.
0.96

Tell me its remaining target (mRNA or protein) (fraction of control) given GGGAGGACGCCGCCATCTTC as the entry.
0.34

Tell me its remaining target (mRNA or protein) (fraction of control) given CACCTCCAGCGTCTCGTAGC as the entry.
0.45

Tell me its remaining target (mRNA or protein) (fraction of control) given ACTGTCCTGTTGCCAGCTCC as the entry.
0.58
